# condition details: in ethyl acetate, 288.15 K
recorded endpoint: solubility (mole fraction)
The response must contain the number and no unit.

# query: solubility (mole fraction) of entry C=CC(=O)NC(C)(C)CS(=O)(=O)O
0.00142

---

# condition details: in 1,4-dioxane, 323.15 K
recorded endpoint: solubility (mole fraction)
The response must contain the number and no unit.

# query: solubility (mole fraction) of entry C=CC(=O)NC(C)(C)CS(=O)(=O)O
0.00195

---

# condition details: in acetonitrile, 323.15 K
recorded endpoint: solubility (mole fraction)
The response must contain the number and no unit.

# query: solubility (mole fraction) of entry C=CC(=O)NC(C)(C)CS(=O)(=O)O
0.0016
